- Tested on: HEK-293T
- assay_protocol: Multiplex assay against HEK293T
- Assay type: toxicity, cell-based
- test_conditions: human, 24 h, 1 µM, compound concentration 1 uM, replicate 2
Non-standard residues stand in square brackets, D forms with d. Residues, ends and D or L forms follow the SMILES beside them.
endpoint_name: Population Hoechst High Intensity Objects (%)

| compound | obs_value |
| --- | --- |
| Cc1cc(NC(=O)NCCN2CCC(O)(Cc3ccccc3)CC2)c2ccccc2n1 [PALOSURAN] | 4 |
| O=C(NCCNCC(O)COc1ccc(O)cc1)N1CCOCC1.O=C(NCCNCC(O)COc1ccc(O)cc1)N1CCOCC1.O=C(O)/C=C/C(=O)O (stereo unspecified) [XAMOTEROL FUMARATE] | 13 |
| CN(C)C/C=C/C(=O)Nc1ccc(C(=O)N2CCCC(Nc3ncc(Cl)c(-c4c[nH]c5ccccc45)n3)C2)cc1 (stereo unspecified) | 26 |
| C[C@@H]1CC(=O)Nc2cccc(-c3ccc4c(c3)c(-c3cnn(C)c3)nn4C)c2N1 | 6 |
| CN1CCC(C(=O)c2cccc(NC(=O)c3c(F)cc(F)cc3F)n2)CC1 | 3 |
| Nc1nc(CC(=O)Nc2ccc(CCNC[C@H](O)c3ccccc3)cc2)cs1 [MIRABEGRON] | 3 |
| CN(C)C(=O)Cn1cc(-c2ccc(-c3nnc4ccccn34)cc2)cn1 | 7 |
| Nc1nc(-c2ccco2)c2cnn(Cc3ccccc3F)c2n1 | 5 |
| CN1CCN2c3ccccc3Cc3ccccc3C2C1.Cl (stereo unspecified) [MIANSERIN HYDROCHLORIDE] | 8 |
| Cc1sc2c(c1C)C(c1ccc(Cl)cc1)=N[C@H](CC(=O)OC(C)(C)C)c1nnc(C)n1-2 | 6 |
| CCCCC[C@H](O)/C=C/[C@H]1[C@H](O)CC(=O)[C@@H]1CCCCCCC(=O)O [ALPROSTADIL] | 4 |
| CN1C[C@H](C(=O)N[C@]2(C)O[C@@]3(O)[C@@H]4CCCN4C(=O)[C@H](Cc4ccccc4)N3C2=O)C[C@@H]2c3cccc4[nH]cc(c34)C[C@H]21.CS(=O)(=O)O [DIHYDROERGOTAMINE MESYLATE] | 3 |
| Cc1cc(=O)n(C)c2cc(N3C(=O)CC[C@H](NS(=O)(=O)CC(C)C)[C@H]3c3ccc(Cl)cc3)ccc12 | 5 |
| CC(C)C[C@@H]1NC(=O)[C@@H](C(C)C)NC(=O)[C@@H]2CCCN2C(=O)[C@@H](CC(=O)O)NC(=O)[C@@H](Cc2c[nH]c3ccccc23)NC1=O [BQ-123] (cyclo(L[dW][dD]P[dV])) | 5 |
| COc1ccc2[nH]c(I)c(CCNC(C)=O)c2c1 [IODOMELATONIN] | 8 |
| Cn1cc(C(=O)OCC2CCN(CCNS(C)(=O)=O)CC2)c2ccccc21 | 5 |

====

- Test system: Fibroblast
- assay_protocol: Multiplex assay against human fibroblast
- Type: toxicity, cell-based
- test_conditions: 24 h, 1 µM, compound concentration 1 uM, replicate 1

| compound | Total Cell Count |
| --- | --- |
| Cc1ccc(OCC(O)C(C)NC(C)C)c2c1CCC2.Cl (centres undefined) | 154 |
| CCn1c(-c2nc3cc(C(=O)N4CCCC(N)C4)ccc3n2C)cc2ccccc21.Cl (centres undefined) | 127 |
| Cc1nn(C)c2nc(NNC(=O)Nc3cc(Cl)nc(Cl)c3)cc(C(C)C)c12 | 176 |
| CN(C)C(=O)Cn1cc(-c2ccc(-c3nnc4ccccn34)cc2)cn1 | 144 |
| Cl.Cl.OCCOCCN1CCN(C(c2ccccc2)c2ccc(Cl)cc2)CC1 (centres undefined) [HYDROXYZINE HYDROCHLORIDE] | 163 |
| Nc1nc(-c2ccco2)c2cnn(Cc3ccccc3F)c2n1 | 180 |
| COc1cc(C(=O)N2CC[C@@H](O)[C@@H](N)C2)cc2nc(-c3cc4ccccc4n3CC3CC3)n(C)c12.Cl | 158 |
| COCCCN1CCC(NC(=O)c2cc(Cl)c(N)c3c2OCC3)CC1 [PRUCALOPRIDE] | 136 |
| O=C(O)CCC/C=C\CC1C(O)CC(O)C1/C=C/C(O)COc1cccc(Cl)c1 (centres undefined) | 161 |

====

- Test system: Fibroblast
- assay_protocol: Multiplex assay against human fibroblast
- Type: toxicity, cell-based
- test_conditions: 48 h, 10 µM, compound concentration 10 uM, replicate 2

| compound | Population Pyknosed Nuclei (%) |
| --- | --- |
| CN1CCC(C(=O)c2cccc(NC(=O)c3c(F)cc(F)cc3F)n2)CC1 | 7 |
| CN1C[C@H](C(=O)N[C@]2(C)O[C@@]3(O)[C@@H]4CCCN4C(=O)[C@H](Cc4ccccc4)N3C2=O)C[C@@H]2c3cccc4[nH]cc(c34)C[C@H]21.CS(=O)(=O)O [DIHYDROERGOTAMINE MESYLATE] | 10 |
| C=CCN1C[C@H](C(=O)N(CCCN(C)C)C(=O)NCC)C[C@@H]2c3cccc4[nH]cc(c34)C[C@H]21 [CABERGOLINE] | 9 |
| CSc1nc(NC2CCCC2)c([N+](=O)[O-])c(NC2CCCC2)n1 [GS-39783] | 13 |
| O=C(Nc1cc(-c2ccccc2)nn1-c1ccccc1F)c1ccc([N+](=O)[O-])cc1 | 14 |
| C[C@H](NC(=O)CNC(=O)c1cccc(Cl)c1)c1ccccc1 | 11 |
| Cc1cc(-c2ccc3c(c2)CC[C@H]3N2CC3(CCN(C(=O)Cc4cn5cc(C)sc5n4)CC3)C2)ncn1 [PF-5190457] | 18 |
| COC(c1ccccc1)(c1ccccc1)[C@H](Oc1nc(C)cc(C)n1)C(=O)O [AMBRISENTAN] | 18 |

====

# maps each entry to its Total Cell Count
- Test system: Fibroblast
- assay_protocol: Multiplex assay against human fibroblast
- Type: toxicity, cell-based
- test_conditions: 48 h, 1 µM, compound concentration 1 uM, replicate 2
endpoint_name: Total Cell Count

| smiles_structure | assay_target | obs_value |
| --- | --- | --- |
| O=C(Nc1cc(-c2ccccc2)nn1-c1ccccc1F)c1ccc([N+](=O)[O-])cc1 | Fibroblast | 183 |
| CCc1nn2c(C)cc(C)nc2c1Cc1ccc(-c2nnc(C3CCNCC3)o2)cc1 | Fibroblast | 168 |
| COc1c(Nc2ccc(S(C)(=O)=O)nc2C)ncnc1OC1CCN(C(=O)OC(C)C)CC1 | Fibroblast | 102 |
| Cc1nn(C)c2nc(NNC(=O)Nc3cc(Cl)nc(Cl)c3)cc(C(C)C)c12 | Fibroblast | 184 |
| COc1cc(C(=O)N2CC[C@@H](O)[C@@H](N)C2)cc2nc(-c3cc4ccccc4n3CC3CC3)n(C)c12.Cl | Fibroblast | 153 |
| CC(C)(C)c1ccc(CSc2cnn(C(C)(C)C)c(=O)c2Cl)cc1 | Fibroblast | 153 |
| Cc1cc(=O)n(C)c2cc(N3C(=O)CC[C@H](NS(=O)(=O)CC(C)C)[C@H]3c3ccc(Cl)cc3)ccc12 | Fibroblast | 142 |
| Cc1cc(-c2ccc3c(c2)CC[C@H]3N2CC3(CCN(C(=O)Cc4cn5cc(C)sc5n4)CC3)C2)ncn1 | Fibroblast | 132 |

====

- Test system: U2OS
- assay_protocol: Multiplex assay against U2OS
- Assay type: toxicity, cell-based
- test_conditions: human, 12 h, 1 µM, compound concentration 1 uM, replicate 2
endpoint_name: Total Cell Count

| compound | assay_target | obs_value |
| --- | --- | --- |
| Cc1cc(NC(=O)NCCN2CCC(O)(Cc3ccccc3)CC2)c2ccccc2n1 [PALOSURAN] | U2OS | 145 |
| Cc1cc(O)c(-c2ccc([C@@H](C)CN(C)C)cc2)c2c1[nH]c(=O)c1sccc12 | U2OS | 89 |
| COc1ccc2[nH]c(I)c(CCNC(C)=O)c2c1 [IODOMELATONIN] | U2OS | 156 |
| COC(c1ccccc1)(c1ccccc1)[C@H](Oc1nc(C)cc(C)n1)C(=O)O [AMBRISENTAN] | U2OS | 87 |
| Nc1nc(CC(=O)Nc2ccc(CCNC[C@H](O)c3ccccc3)cc2)cs1 [MIRABEGRON] | U2OS | 107 |
| CCC(=O)OCC(=O)[C@@]1(OC(=O)CC)[C@@H](C)C[C@H]2[C@@H]3CCC4=CC(=O)C=C[C@]4(C)[C@@]3(Cl)[C@@H](O)C[C@@]21C [BECLOMETHASONE DIPROPIONATE] | U2OS | 111 |
| CN(C)C(=O)Cn1cc(-c2ccc(-c3nnc4ccccn34)cc2)cn1 | U2OS | 123 |
| C[C@H](NC(=O)CNC(=O)c1cccc(Cl)c1)c1ccccc1 | U2OS | 124 |
| C=CCN1C[C@H](C(=O)N(CCCN(C)C)C(=O)NCC)C[C@@H]2c3cccc4[nH]cc(c34)C[C@H]21 [CABERGOLINE] | U2OS | 129 |
| O=c1nc2[nH]c3ccccc3nc-2c(=O)[nH]1 [ALLOXAZINE] | U2OS | 122 |
| CN1CCN2c3ccccc3Cc3ccccc3C2C1.Cl (configuration not stated) [MIANSERIN HYDROCHLORIDE] | U2OS | 109 |
| Nc1nc(-c2ccco2)c2cnn(Cc3ccccc3F)c2n1 | U2OS | 109 |
| Cc1c(Cc2ccc3ccccc3n2)c2cc(F)ccc2n1CC(=O)O [TIMAPIPRANT] | U2OS | 94 |
| COCCn1c(C)c(C)s/c1=N\C(=O)C1C(C)(C)C1(C)C | U2OS | 135 |
| COc1cc(OC2CCN(C(C)=O)CC2)ccc1C(=O)N1CCC(N2C(=O)OCc3ccccc32)CC1 | U2OS | 130 |
| Cl.Cl.OCCOCCN1CCN(C(c2ccccc2)c2ccc(Cl)cc2)CC1 (configuration not stated) [HYDROXYZINE HYDROCHLORIDE] | U2OS | 139 |
| CN1C[C@H](C(=O)N[C@]2(C)O[C@@]3(O)[C@@H]4CCCN4C(=O)[C@H](Cc4ccccc4)N3C2=O)C[C@@H]2c3cccc4[nH]cc(c34)C[C@H]21.CS(=O)(=O)O [DIHYDROERGOTAMINE MESYLATE] | U2OS | 101 |
